# Tested on: HT29 colon
# PROTOCOL DETAILS: NCI-60 one-dose screen, 48 h
# TEST PARAMETERS: 10 µM
This is part of a sample that, as a whole, favours compounds with a hit. Of some 83,000 tested, about 20% had one in any assay. Activity calls are given as the source filed them. How the source made its calls: active means growth percent below 10; inactive means the rest.
Respond using exactly one of the listed classes: 1.0 for active, 0.0 for inactive

Would you please look over these solved cases?
O=C(CSc1nnc(-c2ccc3nc(-c4ccc(Cl)cc4)[nH]c3c2)o1)Nc1ccc(Cl)cc1    1.0
Cc1nn(-c2ccccc2)c2ncn(CC(=O)N/N=C/c3c[nH]c4ccccc34)c(=O)c12    0.0
C=C(C)[C@@H]1CC[C@]2(COP(=O)(OCC)OCC)CC[C@]3(C)[C@H](CC[C@@H]4[C@@](C)(CCCN)[C@H](C(=C)C)CC[C@]43C)[C@@H]12    1.0
N[C@@H](CSSC[C@H](N)C(=O)Nc1ccc(OCC2CCCC2)cc1)C(=O)Nc1ccc(OCC2CCCC2)cc1    1.0
O=C(Nc1cccc(C(F)(F)F)c1)c1cncc(C#Cc2cnc3cccnn23)c1    0.0

Inquiry: Just curious, what result did Cc1ccc(-c2nc(Nc3ccc(C)c(S(N)(=O)=O)c3)c3ccccc3n2)cc1 get here?
Reply text: 0.0

Inquiry: Just curious, what result did O=c1nc(-c2ccccc2)cc(-c2cc3ccccc3nc2Cl)[nH]1 get here?
Reply text: 1.0

Inquiry: Just curious, what result did CC1=C2C(=C[C@@](C)(COCOCCCl)[C@@H]2O)C(=O)[C@](C)(O)C12CC2 get here?
Reply text: 1.0

Inquiry: Just curious, what result did CCOc1ccc(/C=N/NC(=O)Cn2nc(Cc3ccccc3)c3onc(C)c3c2=O)cc1 get here?
Reply text: 0.0

Inquiry: Just curious, what result did O=C(Nc1cc(Cl)cc(Cl)c1)Nc1cc(Cl)cc(Cl)c1 get here?
Reply text: 1.0

Inquiry: Just curious, what result did CC1=C2C(=C[C@@](C)(CO)[C@@H]2O)/C(=N\N)[C@](C)(O)C12CC2 get here?
Reply text: 1.0

Inquiry: Just curious, what result did OCCNc1oc(-c2ccccc2)nc1[P+](c1ccccc1)(c1ccccc1)c1ccccc1 get here?
Reply text: 0.0

* * *

# System: NCI-H322M lung
# PROTOCOL DETAILS: NCI-60 one-dose screen, 48 h (100 = growth as untreated, 0 = no growth, -100 = all killed)
# TEST PARAMETERS: 10 µM
This is part of a sample that, as a whole, favours compounds with a hit. Of some 83,000 tested, about 20% had one in any assay.
Kindly supply the reported growth values for the records listed here.
Numbers only, in %.

Nc1nnc(-c2c[nH]c3ccc(F)cc23)c(-c2c[nH]c3ncccc23)n1    61.1
CC1(c2ccccc2)NC(=O)N(CC(=O)Nc2ccc(C(=O)/C=C/C=C/c3ccccc3)cc2)C1=O (centres undefined)    73.9
C=C1CCC2C3(C)COC(c4c(F)cccc4F)OC3CCC2(C)C1C/C=C1/C(=O)OCC1O (centres undefined)    37.5

# next compound below
Inquiry: For the compound shown here, N#Cc1c(-c2ccc(F)cc2)nc(SCc2ccc(F)cc2)nc1N1CCOCC1 , give the reported growth.
Reply text: 78.4

* * *

# Test system: SW-620 colon
# PROTOCOL DETAILS: NCI-60 one-dose screen, 48 h (100 = growth as untreated, 0 = no growth, -100 = all killed)
# TEST PARAMETERS: 10 µM
The panel holds about 83,000 compounds, 20% with a hit somewhere; the sample as a whole holds those more often.
ASSAY READOUT: growth (%)
Numbers only, in %.

# example entries with known answers
CN(C)c1cccc2c(S(=O)(=O)Nc3cccc(-c4csc(NC(=O)CCCCCN5CCN(c6cc7c(cc6F)C(=O)N(C6CCC(=O)NC6=O)C7=O)CC5)n4)c3)cccc12 (stereo not drawn)    98.6
Nc1nc(Nc2ccccc2)nn1Cc1c(Cl)cccc1Cl    56.3
CCCn1c(=O)c2[nH]c(-c3ccc(OCc4nc5ccc(C(F)(F)F)cc5[nH]4)cc3)nc2n(CCC)c1=O    70
Brc1ccc(/C=C/c2n(Cc3ccc4ccccc4c3)c3ccccc3[n+]2Cc2ccc3ccccc3c2)cc1    -73.9
Oc1ccc(/C=C2\CCCc3cc4ccc(O)cc4[o+]c32)c(O)c1    20.5

Count: 7. Required value per item: growth.
1. O=C(c1ccc(Cl)cc1)C1[C@H](c2ccccc2Br)[C@@H](c2ccccc2)NC12C(=O)Nc1ccccc12 (stereo partly drawn)
2. COc1ccc(NC(=O)CSc2nnc(-c3ccc4nc(-c5ccc(Cl)cc5)[nH]c4c3)o2)cc1
3. CC(=O)c1ccc(Nc2nc(SCCC(C)C)nc(-c3ccc(F)cc3)c2C#N)cc1
4. CC(C)Sc1nc(NC2CC2)c(C#N)c(-c2ccccc2)n1
5. COc1ccc(C(=O)/C=C/c2cc(C(F)(F)F)cc(C(F)(F)F)c2)cc1S(N)(=O)=O
6. CCOP(=O)(OCC)O[C@H]1CCC(=O)[C@@H]2[C@H]1[C@H]1C[C@@H]3[C@@]4(C)CCCC(C)(C(=O)OC)[C@@H]4CC[C@@]23C=C1C(C)C (stereo partly drawn)
7. Cc1ccc(S(=O)(=O)c2nc(-c3ccccc3)oc2S(=O)(=O)CC(=O)N2CCCC2)cc1

Reply text:
1. 5.99
2. 1.97
3. 68.5
4. 100
5. -58
6. 56.1
7. -68.1

Inquiry: For the compound shown here, Cc1ccc(NC(=O)NCn2c(=O)[nH]c3ccccc3c2=O)cc1 , give the reported growth.
Reply text: 78.5

Source: PubChem BioAssay (NCI)
